Tested on: M21
Assay: Antiproliferative activity against human M21 cells assessed as cell growth inhibition incubated for 48 hrs by sulforhodamine B assay
Type: functional, cell-based
Settings: M21, 48 h
pIC50: −log10 of the molar value.
Hi there, I'd appreciate the recorded pIC50 for every entry that follows.

q: Please give the measured pIC50 for this compound: `CCCCCCCCN1CCN(c2ccc(S(=O)(=O)Oc3ccccc3OC)cc2)C1=O`
a: < 5.60

q: // query: `CCCCCCN1CCN(c2ccc(S(=O)(=O)Oc3cc(F)cc(F)c3)cc2)C1=O`
a: < 5.60

q: // query: `CCCCCCCCN1CCN(c2ccc(S(=O)(=O)Oc3ccc(F)c(F)c3)cc2)C1=O`
a: < 5.90

q: // query: `CCCCCCN1CCN(c2ccc(S(=O)(=O)Oc3cccc(I)c3)cc2)C1=O`
a: < 5.90

q: // query: `CCCCCCN1CCN(c2ccc(S(=O)(=O)Oc3ccc(OC)cc3)cc2)C1=O`
a: < 5.90

q: // query: COc1ccc(/C=C\c2cc(OC)c(OC)c(OC)c2)cc1O [COMBRETASTATIN A4]
a: 9.40

q: // query: `CCCCCCN1CCN(c2ccc(S(=O)(=O)Oc3ccccc3OC)cc2)C1=O`
a: < 5.60

q: // query: `CCCCCCN1CCN(c2ccc(S(=O)(=O)Oc3cc(OC)cc(OC)c3)cc2)C1=O`
a: < 5.90

q: // query: `CCCCCCN1CCN(c2ccc(S(=O)(=O)Oc3ccc(F)c(F)c3)cc2)C1=O`
a: < 5.60

q: // query: `CCCCCN1CCN(c2ccc(S(=O)(=O)Oc3cccc(I)c3)cc2)C1=O`
a: < 4.90

q: // query: `CCCCCCN1CCN(c2ccc(S(=O)(=O)Oc3ccc(OC)c(OC)c3)cc2)C1=O`
a: < 5.90

q: // query: `CCCCCCCCN1CCN(c2ccc(S(=O)(=O)Oc3cccc(F)c3)cc2)C1=O`
a: < 5.90

q: // query: `CCCCCCCCN1CCN(c2ccc(S(=O)(=O)Oc3cc(OC)c(OC)c(OC)c3)cc2)C1=O`
a: < 5.90

q: // query: `CCCCCCN1CCN(c2ccc(S(=O)(=O)Oc3cccc(OC)c3)cc2)C1=O`
a: < 5.60

q: // query: `CCCCCCCCN1CCN(c2ccc(S(=O)(=O)Oc3cc(Cl)cc(Cl)c3)cc2)C1=O`
a: < 5.90

q: // query: `CCCCCCCCN1CCN(c2ccc(S(=O)(=O)Oc3cc(Br)cc(Br)c3)cc2)C1=O`
a: < 5.90

q: // query: `CCCCCN1CCN(c2ccc(S(=O)(=O)Oc3ccccc3OC)cc2)C1=O`
a: < 4.90

q: // query: `CCCCCCCCN1CCN(c2ccc(S(=O)(=O)Oc3ccc(OC)c(OC)c3)cc2)C1=O`
a: < 5.90

q: // query: `CCCCCCN1CCN(c2ccc(S(=O)(=O)Oc3cccc(Br)c3)cc2)C1=O`
a: < 5.90

q: // query: `CCCCCN1CCN(c2ccc(S(=O)(=O)Oc3cc(OC)c(OC)c(OC)c3)cc2)C1=O`
a: < 4.90
